Data origin, for the record: patent US20250296934A1

experiment: In vitro hepatocyte clearance, dog; type: in vitro ADME; settings: Dog hepatocytes; read-out: In vitro T1/2

{"smiles-record": "Cc1ccc(O)c2c3c([nH]c12)CCNCC3", "half-life": "> 8.53 h"}

* * *

target: 5-HT2C (Homo sapiens, UniProt P28335); assay: cell-based; conditions: Table 3
Sequence (P28335 33-458, species assumed): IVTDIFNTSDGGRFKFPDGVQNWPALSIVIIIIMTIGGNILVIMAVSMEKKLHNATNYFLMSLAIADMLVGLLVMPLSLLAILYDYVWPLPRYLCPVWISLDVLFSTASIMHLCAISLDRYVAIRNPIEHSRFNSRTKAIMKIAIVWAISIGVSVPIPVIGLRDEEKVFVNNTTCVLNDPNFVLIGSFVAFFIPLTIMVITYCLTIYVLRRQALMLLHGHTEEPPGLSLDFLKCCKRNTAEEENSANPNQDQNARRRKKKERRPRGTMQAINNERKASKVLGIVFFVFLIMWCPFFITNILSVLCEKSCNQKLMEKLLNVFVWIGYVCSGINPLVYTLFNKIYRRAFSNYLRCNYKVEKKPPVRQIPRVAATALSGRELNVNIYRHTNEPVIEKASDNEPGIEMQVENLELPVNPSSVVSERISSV
pEC50: −log10 of the molar value.

{"smiles-record": "Cc1ccc(O)c2c3c([nH]c12)CCNCC3", "pEC50": 9.30}

* * *

test: In vitro hepatocyte clearance, dog; format: in vitro ADME; conditions: dog, hepatocytes; read-out: Scale-up Clint

{"smiles-record": "Cc1ccc(O)c2c3c([nH]c12)CCNCC3", "CLint scaled": "< 18.6 mL/min/kg"}

* * *

Some compounds, each annotated with its measured CLint scaled.
test: In vitro hepatocyte clearance, human; format: in vitro ADME; conditions: Human hepatocytes; read-out: Scale-up Clint

{"compound": "Cc1ccc(O)c2c3c([nH]c12)CCNCC3 [Cpd #1 (Pharm-136)]", "CLint scaled": "< 6.89 mL/min/kg"}
{"compound": "Oc1cccc2[nH]c3c(c12)CCNCC3 [Cpd #67 (A93)]", "CLint scaled": "< 6.89 mL/min/kg"}
{"compound": "Cc1ccc(O)c2c3c([nH]c12)CCN(C)CC3 [Cpd #14 (W5)]", "CLint scaled": "3.22 mL/min/kg"}

* * *

assay: Plasma PK in rat; format: in vivo; conditions: IV, 2.5 mg/kg

{"compound": "Cc1ccc(O)c2c3c([nH]c12)CCNCC3 [Cpd #1 (Pharm-136)]", "unit-tag": "ng·h/mL", "AUC(0-t)": 37.5}

* * *

experiment: Plasma PK in dog; format: in vivo; settings: PO, 10 mg/kg
measurement-kind: half-life (h)

{"molecule": "Cc1ccc(O)c2c3c([nH]c12)CCNCC3 [Cpd #1 (Pharm-136)]", "measured-result": 3.21}

* * *

Some molecules, each annotated with its measured CLint scaled.
assay: In vitro hepatocyte clearance, mouse; assay type: in vitro ADME; details: Mouse hepatocytes; read-out: Scale-up Clint
measurement-kind: CLint scaled (mL/min/kg)

{"smiles-record": "Cc1ccc(O)c2c3c([nH]c12)CCN(C)CC3", "value-prefix": "=", "measured-result": 480}
{"smiles-record": "Cc1ccc(O)c2c3c([nH]c12)CCNCC3", "value-prefix": "=", "measured-result": 389}
{"smiles-record": "Oc1cccc2[nH]c3c(c12)CCNCC3", "value-prefix": "<", "measured-result": 32}

* * *

Some molecules, each annotated with its measured 5-HT2B BRET Eff.
molecular target: 5-HT2B (Homo sapiens, UniProt P41595); assay: 5-HT2B Gq dissociation BRET functional assay; assay type: cell-based; set-up: expressed in transfected cells; host or cells: HEK293T; conditions: normalized to % 5-HT stimulation
Sequence (P41595 whole entry): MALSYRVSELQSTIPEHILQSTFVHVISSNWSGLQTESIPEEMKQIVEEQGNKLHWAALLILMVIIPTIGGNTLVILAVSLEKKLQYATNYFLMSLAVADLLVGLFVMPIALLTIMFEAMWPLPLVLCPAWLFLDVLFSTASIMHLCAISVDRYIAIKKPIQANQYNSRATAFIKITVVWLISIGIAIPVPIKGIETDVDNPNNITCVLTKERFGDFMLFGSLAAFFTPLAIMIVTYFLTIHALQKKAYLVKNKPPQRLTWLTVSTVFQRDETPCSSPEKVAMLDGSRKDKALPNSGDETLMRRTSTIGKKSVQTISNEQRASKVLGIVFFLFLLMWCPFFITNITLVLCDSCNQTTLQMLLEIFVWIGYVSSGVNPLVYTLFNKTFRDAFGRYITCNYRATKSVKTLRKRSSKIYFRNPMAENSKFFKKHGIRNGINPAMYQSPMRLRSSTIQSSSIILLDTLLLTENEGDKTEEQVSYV

{"smiles-record": "Cc1ccc(O)c2c3c([nH]c12)CCN(C)CC3", "5-HT2B BRET Eff [%]": 25}
{"smiles-record": "CN1CCc2c(n(C)c3cccc(O)c23)CC1", "5-HT2B BRET Eff [%]": 46}
{"smiles-record": "Cn1c2c(c3c(O)cccc31)CCNCC2", "5-HT2B BRET Eff [%]": 70}

* * *

experiment: In vitro hepatocyte clearance, mouse; format: in vitro ADME; conditions: Mouse hepatocytes

{"smiles-record": "Cc1ccc(O)c2c3c([nH]c12)CCN(C)CC3", "value-prefix": "=", "hepatocyte CLint [µL/min/1e6 cells]": 40.7}
{"smiles-record": "Cc1ccc(O)c2c3c([nH]c12)CCNCC3", "value-prefix": "=", "hepatocyte CLint [µL/min/1e6 cells]": 33}
{"smiles-record": "Oc1cccc2[nH]c3c(c12)CCNCC3", "value-prefix": "<", "hepatocyte CLint [µL/min/1e6 cells]": 2.71}

* * *

target: 5-HT1B (Homo sapiens, UniProt P28222); assay: 5-HT receptor activity (Table 3), 5-HT1B
Sequence (P28222 whole entry, species assumed): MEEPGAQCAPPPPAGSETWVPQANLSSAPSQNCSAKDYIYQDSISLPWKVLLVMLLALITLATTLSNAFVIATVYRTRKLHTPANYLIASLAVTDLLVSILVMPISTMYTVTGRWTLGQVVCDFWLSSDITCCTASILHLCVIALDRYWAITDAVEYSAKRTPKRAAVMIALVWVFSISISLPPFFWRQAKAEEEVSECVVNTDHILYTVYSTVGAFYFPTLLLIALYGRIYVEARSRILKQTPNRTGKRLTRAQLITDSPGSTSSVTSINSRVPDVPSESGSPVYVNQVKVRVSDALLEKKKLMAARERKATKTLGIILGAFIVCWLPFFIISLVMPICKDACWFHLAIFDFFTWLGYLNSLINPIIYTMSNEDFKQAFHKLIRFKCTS
pEC50: −log10 of the molar value.
measurement-kind: pEC50

{"smiles-record": "Cc1ccc(O)c2c3c([nH]c12)CCNCC3", "tested-on": "5-HT1B (Homo sapiens, UniProt P28222)", "measured-result": 6.49}

* * *

biological target: 5-HT2B (Homo sapiens); experiment: 5-HT2B Gq dissociation BRET functional assay; format: cell-based; design: expressed in transfected cells; host or cells: HEK293T; conditions: Gq dissociation BRET, HEK293T; read-out: 5-HT2B BRET EC50

{"molecule": "Cc1cccc2c(CCN(C)C)c[nH]c12 [7,N,N-TMT, reference compound]", "EC50 / nM": 74.3}

* * *

biological target: 5-HT2A (Homo sapiens, UniProt P28223); experiment: 5-HT2A Gq dissociation BRET functional assay; assay type: cell-based; parameters: expressed in transfected cells; host or cells: HEK293T; conditions: normalized to % 5-HT stimulation
Sequence (P28223 whole entry): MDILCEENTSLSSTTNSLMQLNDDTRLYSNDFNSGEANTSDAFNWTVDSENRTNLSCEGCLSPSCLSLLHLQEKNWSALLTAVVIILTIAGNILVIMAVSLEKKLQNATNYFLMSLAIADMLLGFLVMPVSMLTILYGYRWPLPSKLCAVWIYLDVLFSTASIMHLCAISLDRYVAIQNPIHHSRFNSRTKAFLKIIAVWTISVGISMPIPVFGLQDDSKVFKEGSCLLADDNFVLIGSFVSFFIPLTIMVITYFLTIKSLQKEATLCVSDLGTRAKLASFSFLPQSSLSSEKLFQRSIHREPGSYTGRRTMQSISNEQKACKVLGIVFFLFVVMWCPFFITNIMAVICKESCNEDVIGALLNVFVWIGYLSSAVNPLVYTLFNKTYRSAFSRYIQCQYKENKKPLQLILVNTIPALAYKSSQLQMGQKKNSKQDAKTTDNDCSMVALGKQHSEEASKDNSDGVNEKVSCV

{"compound": "Cn1c2c(c3c(O)cccc31)CCNCC2", "5-HT2A BRET Eff [%]": 96}
{"compound": "Cc1ccc(O)c2[nH]c3c(c12)CCNCC3", "5-HT2A BRET Eff [%]": 96}
{"compound": "Cc1ccc(O)c2c3c([nH]c12)CCN(Cc1ccccc1O)CC3", "5-HT2A BRET Eff [%]": 76}
{"compound": "CN(C)CCc1c[nH]c2cccc(O)c12 [psilocin, reference compound]", "5-HT2A BRET Eff [%]": 82}
{"compound": "NCCc1c[nH]c2cccc(O)c12 [4-hydroxytryptamine, reference compound]", "5-HT2A BRET Eff [%]": 100}
{"compound": "Cc1cc(F)c(O)c2c3c([nH]c12)CCNCC3", "5-HT2A BRET Eff [%]": 97}
{"compound": "Cc1cccc2c(CCN(C)C)c[nH]c12 [7,N,N-TMT, reference compound]", "5-HT2A BRET Eff [%]": 80}
{"compound": "Cc1ccc(O)c2c3c([nH]c12)CCN(C)CC3", "5-HT2A BRET Eff [%]": 89}
{"compound": "Oc1cccc2[nH]c3c(c12)CCNCC3", "5-HT2A BRET Eff [%]": 97}
{"compound": "Cc1ccc(O)c2c3c([nH]c12)CCNCC3", "5-HT2A BRET Eff [%]": 102}

* * *

test: In vitro hepatocyte clearance, rat; assay type: in vitro ADME; settings: rat, hepatocytes; read-out: Scale-up Clint
measurement-kind: CLint scaled

{"smiles-record": "Cc1ccc(O)c2c3c([nH]c12)CCNCC3", "measurement-kind": "CLint scaled", "measured-result": "25.4 mL/min/kg"}

* * *

molecular target: 5-HT2B (Homo sapiens, UniProt P41595); experiment: 5-HT2B Gq dissociation BRET functional assay; format: cell-based; set-up: expressed in transfected cells; host or cells: HEK293T
pEC50: −log10 of the molar value.
Some compounds, each annotated with its measured pEC50.

{"compound": "Cc1ccc(O)c2c3c([nH]c12)C(C)CNCC3 (stereo not shown)", "pEC50": 8.89}
{"compound": "Cc1ccc(O)c2[nH]c3c(c12)CCNCC3", "pEC50": 8.52}
{"compound": "Cc1ccc(O)c2c3c([nH]c12)CCNCC3", "pEC50": 8.46}
{"compound": "Cc1cc(F)c(O)c2c3c([nH]c12)CCNCC3", "pEC50": 7.85}
{"compound": "Cn1c2c(c3c(O)cccc31)CCNCC2", "pEC50": 7.39}
{"compound": "Cc1ccc(O)c2c3c([nH]c12)CCN(C)CC3", "pEC50": 7.64}
{"compound": "Cc1ccc(O)c2c3c([nH]c12)CCN(Cc1ccccc1O)CC3", "pEC50": 8.57}
{"compound": "CN1CCc2[nH]c3cccc(O)c3c2CC1", "pEC50": 7.32}
{"compound": "CN1CCc2c(n(C)c3cccc(O)c23)CC1", "pEC50": 7.04}
{"compound": "Oc1cccc2[nH]c3c(c12)CCNCC3", "pEC50": 7.25}

* * *

target: 5-HT1E (Homo sapiens, UniProt P28566); test: 5-HT receptor activity (Table 3), 5-HT1E
Sequence (P28566 whole entry, species assumed): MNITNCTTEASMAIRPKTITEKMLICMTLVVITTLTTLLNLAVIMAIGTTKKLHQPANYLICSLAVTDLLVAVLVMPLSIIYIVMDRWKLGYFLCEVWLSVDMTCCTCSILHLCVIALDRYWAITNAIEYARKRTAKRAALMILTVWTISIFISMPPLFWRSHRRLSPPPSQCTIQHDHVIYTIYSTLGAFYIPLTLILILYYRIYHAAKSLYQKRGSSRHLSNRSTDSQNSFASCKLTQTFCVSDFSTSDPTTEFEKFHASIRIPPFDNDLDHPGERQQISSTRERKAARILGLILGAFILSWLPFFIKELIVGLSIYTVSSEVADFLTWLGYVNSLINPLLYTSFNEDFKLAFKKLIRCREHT
pEC50: −log10 of the molar value.

{"smiles-record": "Cc1ccc(O)c2c3c([nH]c12)CCNCC3", "tested-on": "5-HT1E (Homo sapiens, UniProt P28566)", "pEC50": 6.01}

* * *

assay: Plasma PK in rat; format: in vivo; conditions: IV, 2.5 mg/kg, read-out: Cltot (converted)

{"molecule": "Cc1ccc(O)c2c3c([nH]c12)CCNCC3 [Cpd #1 (Pharm-136)]", "clearance / mL/min/kg": 1070}

* * *

Some compounds, each annotated with its measured half-life.
experiment: In vitro hepatocyte clearance, mouse; type: in vitro ADME; conditions: Mouse hepatocytes; read-out: In vitro T1/2

{"smiles-record": "Cc1ccc(O)c2c3c([nH]c12)CCNCC3", "value-prefix": "=", "half-life (min)": 42.2}
{"smiles-record": "Oc1cccc2[nH]c3c(c12)CCNCC3", "value-prefix": ">", "half-life (min)": 512}
{"smiles-record": "Cc1ccc(O)c2c3c([nH]c12)CCN(C)CC3", "value-prefix": "=", "half-life (min)": 34.1}
